These measurements were taken from patent US20020048549A1.

Intestine % dose/g values for the compounds below.
# procedure_text: Biodistribution of 99mTc(N)(X)(DTC)+ heterocomplexes in rats
# Type: in vivo, male Spraque-Dawley rats (SD rats)
# run_parameters: 10 min after injection
Quick note: give the figure in % dose/g, leave out the unit.

Some compounds with recorded Intestine % dose/g:
Ask: // Input: CCCN1CC[P+](c2ccccc2)(c2ccccc2)[99Tc-2]2(#[N])([NH]N(C)C(SC)=[S+]2)[P+](c2ccccc2)(c2ccccc2)CC1 [^99mTc(N)(PNP1)(DTC)^+] . Output its Intestine % dose/g only.
Reply: 0.704

Ask: State its Intestine % dose/g for this compound: CSC1=[S+][99Tc-2]2(#[N])([NH]N1C)[P+](c1ccccc1)(c1ccccc1)CCOCC[P+]2(c1ccccc1)c1ccccc1 [^99mTc(N)(POP)(DTC)^+]
Reply: 0.934

Ask: Tell us which Intestine % dose/g value is on record for COCCC[P]1(CCCOC)CCN(CCOC)CC[P](CCCOC)(CCCOC)[99Tc+]12(#[N])[NH]N(C)C(SC)=[S]2 [^99mTc(N)(PNP3)(DTC)^+]
Reply: 10.959

New cases:
Ask: Note Intestine % dose/g for the compound shown: COCCN1CC[P+](c2ccccc2)(c2ccccc2)[99Tc-2]2(#[N])([NH]N(C)C(SC)=[S+]2)[P+](c2ccccc2)(c2ccccc2)CC1 [^99mTc(N)(PNP2)(DTC)^+]
Reply: 2.861

====

# procedure_text: Biodistribution of 99mTc(N)(X)(DTC)+ heterocomplexes in rats
# Format: in vivo, male Spraque-Dawley rats (SD rats)
# run_parameters: 10 min after injection
endpoint_name: Bone % dose/g (% dose/g)
A number alone suffices; assume % dose/g.

Ask: Please supply the value of reported Bone % dose/g for the item CCCN1CC[P+](c2ccccc2)(c2ccccc2)[99Tc-2]2(#[N])([NH]N(C)C(SC)=[S+]2)[P+](c2ccccc2)(c2ccccc2)CC1 [^99mTc(N)(PNP1)(DTC)^+]
Reply: 0.3

Ask: Check the records and state Bone % dose/g for COCCN1CC[P+](c2ccccc2)(c2ccccc2)[99Tc-2]2(#[N])([NH]N(C)C(SC)=[S+]2)[P+](c2ccccc2)(c2ccccc2)CC1 [^99mTc(N)(PNP2)(DTC)^+]
Reply: 0.268

Ask: Recall and state the measured Bone % dose/g for CSC1=[S+][99Tc-2]2(#[N])([NH]N1C)[P+](c1ccccc1)(c1ccccc1)CCOCC[P+]2(c1ccccc1)c1ccccc1 [^99mTc(N)(POP)(DTC)^+] .
Reply: 0.306

Ask: State, in one line, measured Bone % dose/g of COCCC[P]1(CCCOC)CCN(CCOC)CC[P](CCCOC)(CCCOC)[99Tc+]12(#[N])[NH]N(C)C(SC)=[S]2 [^99mTc(N)(PNP3)(DTC)^+]
Reply: 0.204

====

Listing: Heart % dose/g of selected molecules
# procedure_text: Biodistribution of 99mTc(N)(X)(DTC)+ heterocomplexes in rats
# Type: in vivo, male Spraque-Dawley rats (SD rats)
# run_parameters: 1 hr after injection
Field: numeric (% dose/g). Do not append units.

Ask: Using the record for CSC1=[S+][99Tc-2]2(#[N])([NH]N1C)[P+](c1ccccc1)(c1ccccc1)CCOCC[P+]2(c1ccccc1)c1ccccc1 [^99mTc(N)(POP)(DTC)^+] , state its measured Heart % dose/g.
Reply: 0.42

Further cases:
Ask: Give recorded Heart % dose/g. COCCC[P]1(CCCOC)CCN(CCOC)CC[P](CCCOC)(CCCOC)[99Tc+]12(#[N])[NH]N(C)C(SC)=[S]2 [^99mTc(N)(PNP3)(DTC)^+]
Reply: 2.155

Ask: Please report Heart % dose/g for the following molecule: CCCN1CC[P+](c2ccccc2)(c2ccccc2)[99Tc-2]2(#[N])([NH]N(C)C(SC)=[S+]2)[P+](c2ccccc2)(c2ccccc2)CC1 [^99mTc(N)(PNP1)(DTC)^+]
Reply: 0.55

Ask: Tell me Heart % dose/g reported for COCCN1CC[P+](c2ccccc2)(c2ccccc2)[99Tc-2]2(#[N])([NH]N(C)C(SC)=[S+]2)[P+](c2ccccc2)(c2ccccc2)CC1 [^99mTc(N)(PNP2)(DTC)^+]
Reply: 0.534
